Kindly supply the reported GI50 values for the records listed here.
# Tested on: T47D
# assay-overview: NCI tumour cell line growth inhibition, 48 h
The source made the active and inactive calls. Cut-off read from the data, not from the text of the source: active = GI50 up to about 1.1 µM and inactive = higher.

For T47D, provide GI50 of CCOC(=O)C1CCCC1S(=O)(=O)c1ccc(C)cc1 (stereo not drawn) please.
> 100 µM (inactive)

Next: CN(Cc1cc(Br)cc(Br)c1O)Cc1c(O)ccc2ccccc12
21.9 µM (inactive)

Next: O=C(O)Cc1cc(O)c(CC(=O)O)cc1O
> 100 µM (inactive)

Next: O=Nc1c(-c2c(O)[nH]c3ccccc23)[nH]c2ccccc12
4.3 µM (inactive)

Next: O=C1NC(N2CCOCC2)=N/C1=C\c1ccco1
> 100 µM (inactive)

Next: O=C1N(c2ccccc2)C(=S)/C(=C/c2ccc(Cl)cc2)N1c1ccc(Cl)cc1
63.8 µM (inactive)

Next: CC(NNC(=O)c1cc[n+]([BH2-]C#N)cc1)c1ccccc1F (stereo not drawn)
> 100 µM (inactive)

Next: CCn1c(SCC(=O)NNC(=S)Nc2ccc(C)cc2)nc2ccccc2c1=O
65.5 µM (inactive)

Next: Cn1c(=O)cc(NNc2ccccc2)[nH]c1=O
17.6 µM (inactive)

Next: COC(=O)c1c(CC(Cc2ccc3c(c2)CCCC3)C(=O)OC)ccc2c1CCCC2 (stereo not drawn)
35.8 µM (inactive)

Next: CN(C)CCCNc1cc(O)c2c(c1O)C(=O)c1ccccc1C2=O
19 µM (inactive)

Next: O=C1C(Cl)=C(Cl)C(Cl)(Cl)C(Cl)C1(Cl)Cl (stereo not drawn)
21 µM (inactive)

Next: COc1c(Br)cc2c(c1OC)C(Br)CCC(Br)(Br)C2=O (stereo not drawn)
1.85 µM (inactive)

Next: Nc1ccc(OCCCc2c(-c3ccccc3)[nH]c(N)nc2=O)cc1
12.2 µM (inactive)

Next: Cc1cc(-c2nc3cccc(O)c3s2)ccc1N
62.5 µM (inactive)

Next: COC(=O)c1ccc(CCc2cc(O)c(Br)cc2O)cc1
18.6 µM (inactive)

Next: C=CC[C@H]1[C@H](O[Si](C)(C)C(C)(C)C)C=CC(=O)[C@@H]1CC(=O)OCC
6.04 µM (inactive)

Next: Fc1cc(C2=C[C@H](c3ccc4c(c3)OCO4)NC(=S)N2)c(Cl)cc1Cl
20.2 µM (inactive)

Next: CC1C(C#N)(C#N)C(C#N)=C(N)C1(Cl)[N+](=O)[O-] (stereo not drawn)
15.7 µM (inactive)

Next: COC1C(=O)CCC2(CO2)C1(O)C1(C)OC1CCC(C)C (stereo not drawn)
52.8 µM (inactive)

Next: O=C1/C(=C/Cc2ccco2)N=C(c2ccccc2)N1c1nc2c(Cl)cc(Cl)cc2s1
16.8 µM (inactive)

Next: NC(Cc1ccc(OCc2ccccc2)cc1)C(=O)NC(Cc1ccccc1)C(=O)Oc1c(Cl)c(Cl)c(Cl)c(Cl)c1Cl (stereo not drawn)
17.9 µM (inactive)

Next: O=C1O/C(=C(/Cl)c2c3ccccc3cc3ccccc23)c2ccccc21
80.5 µM (inactive)
